These data points were gathered from ChEMBL document CHEMBL2440100.

Assay: Inhibition of bovine trypsin using benzoyl-L-arginine p-nitroanilide as substrate after 5 to 60 mins
Set-up: species or system Bos taurus
Where a SMILES comes first, the peptide text is derived from it. Bridges are numbered along the chain shown (N, C = ends).
Provide the reported log10 Ki of each item.
Each number you see is log10 of Ki, and the unit inside the log is nM.

q: Determine from records and report log10 Ki for CC(C)C[C@H](N)C(=O)N[C@H](C(=O)N[C@@H](CCCNC(=N)N)C(=O)NCC(=O)N[C@H]1CSSC[C@@H](C(=O)N[C@@H](Cc2ccccc2)C(=O)N[C@H](C(=O)N[C@@H](CCCNC(=N)N)C(=O)O)C(C)C)NC(=O)[C@H](C)NC(=O)[C@H](CCCCN)NC(=O)[C@@H]2CCCN2C(=O)[C@@H]2CCCN2C(=O)[C@H](Cc2ccc(O)cc2)NC(=O)[C@H](CO)NC(=O)[C@H](CCCCN)NC(=O)[C@H]([C@@H](C)O)NC(=O)[C@H](Cc2c[nH]c3ccccc23)NC1=O)C(C)C (H-LVRGCWTKSYPPKACFVR-OH; disulfide 5-15)
a: 2.40

q: Determine from records and report log10 Ki for CC(C)C[C@H](N)C(=O)N[C@H](C(=O)N[C@@H](CCCNC(=N)N)C(=O)NCC(=O)N[C@H]1CSSC[C@@H](C(=O)N[C@@H](Cc2ccccc2)C(=O)N[C@H](C(=O)N[C@@H](CCCNC(=N)N)C(=O)O)C(C)C)NC(=O)[C@@H]2CCCN2C(=O)[C@H](CCCCN)NC(=O)[C@H](C)NC(=O)[C@@H]2CCCN2C(=O)[C@H](Cc2ccc(O)cc2)NC(=O)[C@H](CO)NC(=O)[C@H](CCCCN)NC(=O)[C@H]([C@@H](C)O)NC(=O)[C@H](Cc2c[nH]c3ccccc23)NC1=O)C(C)C (H-LVRGCWTKSYPAKPCFVR-OH; disulfide 5-15)
a: 2.19

q: Determine from records and report log10 Ki for CC(C)C[C@H](NC(=O)[C@H](C)NC(=O)CN)C(=O)N[C@@H](CCCNC(=N)N)C(=O)NCC(=O)N[C@H]1CSSC[C@@H](C(=O)N[C@@H](CCCCN)C(=O)O)NC(=O)[C@@H]2CCCN2C(=O)[C@H](CCCCN)NC(=O)[C@@H]2CCCN2C(=O)[C@@H]2CCCN2C(=O)[C@H](Cc2ccc(O)cc2)NC(=O)[C@H](CO)NC(=O)[C@H](CCCCN)NC(=O)[C@H]([C@@H](C)O)NC(=O)[C@H](Cc2c[nH]c3ccccc23)NC1=O (H-GALRGCWTKSYPPKPCK-OH; disulfide 6-16)
a: 2.06

q: Determine from records and report log10 Ki for CC(C)C[C@H](N)C(=O)N[C@H](C(=O)N[C@@H](CCCNC(=N)N)C(=O)NCC(=O)N[C@H]1CSSC[C@@H](C(=O)N[C@@H](Cc2ccccc2)C(=O)N[C@H](C(=O)N[C@@H](CCCNC(=N)N)C(=O)O)C(C)C)NC(=O)[C@@H]2CCCN2C(=O)[C@H](C)NC(=O)[C@@H]2CCCN2C(=O)[C@@H]2CCCN2C(=O)[C@H](Cc2ccc(O)cc2)NC(=O)[C@H](CO)NC(=O)[C@H](CCCCN)NC(=O)[C@H]([C@@H](C)O)NC(=O)[C@H](Cc2c[nH]c3ccccc23)NC1=O)C(C)C (H-LVRGCWTKSYPPAPCFVR-OH; disulfide 5-15)
a: 2.60

q: Determine from records and report log10 Ki for CC(C)C[C@H](N)C(=O)N[C@H](C(=O)N[C@@H](CCCNC(=N)N)C(=O)NCC(=O)N[C@H]1CSSC[C@@H](C(=O)N[C@@H](Cc2ccccc2)C(=O)N[C@H](C(=O)N[C@@H](CCCNC(=N)N)C(=O)O)C(C)C)NC(=O)[C@H](CCCCN)NC(=O)[C@@H]2CCCN2C(=O)[C@@H]2CCCN2C(=O)[C@H](Cc2ccc(O)cc2)NC(=O)[C@H](CO)NC(=O)[C@H](CCCCN)NC(=O)[C@H]([C@@H](C)O)NC1=O)C(C)C (H-LVRGCTKSYPPKCFVR-OH; disulfide 5-13)
a: 2.39

q: Determine from records and report log10 Ki for CC(C)C[C@H](N)C(=O)N[C@H](C(=O)N[C@@H](CCCNC(=N)N)C(=O)NCC(=O)N[C@H]1CSSC[C@@H](C(=O)N[C@@H](Cc2ccccc2)C(=O)N[C@H](C(=O)N[C@@H](CCCNC(=N)N)C(=O)O)C(C)C)NC(=O)[C@@H]2CCCN2C(=O)[C@H](CCCCN)NC(=O)[C@@H]2CCCN2C(=O)[C@@H]2CCCN2C(=O)[C@H](C)NC(=O)[C@H](CO)NC(=O)[C@H](CCCCN)NC(=O)[C@H]([C@@H](C)O)NC(=O)[C@H](Cc2c[nH]c3ccccc23)NC1=O)C(C)C (H-LVRGCWTKSAPPKPCFVR-OH; disulfide 5-15)
a: 2.15

q: Determine from records and report log10 Ki for CC(C)C[C@H](N)C(=O)N[C@H](C(=O)N[C@@H](CCCNC(=N)N)C(=O)NCC(=O)N[C@H]1CSSC[C@@H](C(=O)N[C@@H](Cc2ccccc2)C(=O)N[C@H](C(=O)N[C@@H](CCCNC(=N)N)C(=O)O)C(C)C)NC(=O)[C@@H]2CCCN2C(=O)[C@H](CCCCN)NC(=O)[C@@H]2CCCN2C(=O)[C@@H]2CCCN2C(=O)[C@H](Cc2ccc(O)cc2)NC(=O)[C@H](CO)NC(=O)[C@H](CCCCN)NC(=O)[C@H]([C@@H](C)O)NC(=O)[C@H](C)NC1=O)C(C)C (H-LVRGCATKSYPPKPCFVR-OH; disulfide 5-15)
a: 2.83

q: Determine from records and report log10 Ki for CC(C)C[C@H](N)C(=O)N[C@H](C(=O)N[C@@H](CCCNC(=N)N)C(=O)NCC(=O)N[C@H]1CSSC[C@@H](C(=O)N[C@@H](Cc2ccccc2)C(=O)N[C@H](C(=O)N[C@@H](CCCNC(=N)N)C(=O)O)C(C)C)NC(=O)[C@@H]2CCCN2C(=O)[C@H](CCCCN)NC(=O)[C@@H]2CCCN2C(=O)[C@@H]2CCCN2C(=O)[C@H](Cc2ccc(O)cc2)NC(=O)[C@H](CO)NC(=O)[C@H](CCCCN)NC(=O)[C@H](C)NC(=O)[C@H](Cc2c[nH]c3ccccc23)NC1=O)C(C)C (H-LVRGCWAKSYPPKPCFVR-OH; disulfide 5-15)
a: 3.05

q: Determine from records and report log10 Ki for CC[C@H](C)[C@@H]1NC(=O)[C@@H]2CCCN2C(=O)[C@@H]2CCCN2C(=O)[C@H]([C@@H](C)CC)NC(=O)[C@H](CO)NC(=O)[C@H](CCCCN)NC(=O)[C@H]([C@@H](C)O)NC(=O)[C@@H](NC(=O)[C@H](CCCNC(=N)N)NC(=O)CN)CSSC[C@@H](C(=O)N[C@@H](Cc2ccccc2)C(=O)N2CCC[C@H]2C(=O)N[C@@H](CC(=O)O)C(=O)O)NC1=O
a: 1.30

* * *

Assay: Inhibition of bovine trypsin using benzoyl-L-arginine p-nitroanilide as substrate after 5 to 60 mins
Design: species or system Bos taurus
Where a SMILES comes first, the peptide text is derived from it. Bridges are numbered along the chain shown (N, C = ends).
Metric: Ki (nM)
Answer with a number only, understood to be in nM.

q: Determine from records and report Ki for C[C@H](NC(=O)[C@@H](N)CO)C(=O)N1CCC[C@H]1C(=O)N[C@@H](CCCNC(=N)N)C(=O)NCC(=O)N[C@H]1CSSC[C@@H](C(=O)N[C@@H](CCCCN)C(=O)O)NC(=O)[C@@H]2CCCN2C(=O)[C@H](CCCCN)NC(=O)[C@@H]2CCCN2C(=O)[C@@H]2CCCN2C(=O)[C@H](Cc2ccc(O)cc2)NC(=O)[C@H](CO)NC(=O)[C@H](CCCCN)NC(=O)[C@H]([C@@H](C)O)NC(=O)[C@H](Cc2c[nH]c3ccccc23)NC1=O (H-SAPRGCWTKSYPPKPCK-OH; disulfide 6-16)
a: 129

q: Determine from records and report Ki for CC(C)C[C@H](N)C(=O)N[C@H](C(=O)N[C@@H](CCCNC(=N)N)C(=O)NCC(=O)N[C@H]1CSSC[C@@H](C(=O)O)NC(=O)[C@@H]2CCCN2C(=O)[C@H](CCCCN)NC(=O)[C@@H]2CCCN2C(=O)[C@@H]2CCCN2C(=O)[C@H](Cc2ccc(O)cc2)NC(=O)[C@H](CO)NC(=O)[C@H](CCCCN)NC(=O)[C@H]([C@@H](C)O)NC(=O)[C@H](Cc2c[nH]c3ccccc23)NC1=O)C(C)C (H-LVRGCWTKSYPPKPC-OH; disulfide 5-15)
a: 322

q: Determine from records and report Ki for C[C@@H](O)[C@@H]1NC(=O)[C@H](Cc2c[nH]c3ccccc23)NC(=O)[C@@H](N)CSSC[C@@H](C(=O)O)NC(=O)[C@@H]2CCCN2C(=O)[C@H](CCCCN)NC(=O)[C@@H]2CCCN2C(=O)[C@@H]2CCCN2C(=O)[C@H](Cc2ccc(O)cc2)NC(=O)[C@H](CO)NC(=O)[C@H](CCCCN)NC1=O
a: 335

q: Determine from records and report Ki for CC[C@H](C)[C@@H]1NC(=O)[C@@H]2CCCN2C(=O)[C@@H]2CCCN2C(=O)[C@H]([C@@H](C)CC)NC(=O)[C@H](CO)NC(=O)[C@H](CCCCN)NC(=O)[C@H]([C@@H](C)O)NC(=O)[C@@H]2CSSC[C@H](NC1=O)C(=O)N[C@@H](Cc1ccccc1)C(=O)N1CCC[C@H]1C(=O)N[C@@H](CC(=O)O)C(=O)NCC(=O)N[C@@H](CCCNC(=N)N)C(=O)N2
a: 8

q: Determine from records and report Ki for CC(C)C[C@H](N)C(=O)N[C@H](C(=O)N[C@@H](CCCNC(=N)N)C(=O)NCC(=O)N[C@H]1CSSC[C@@H](C(=O)N[C@@H](Cc2ccccc2)C(=O)N[C@H](C(=O)N[C@@H](CCCNC(=N)N)C(=O)O)C(C)C)NC(=O)[C@@H]2CCCN2C(=O)[C@H](CCCCN)NC(=O)[C@@H]2CCCN2C(=O)[C@@H]2CCCN2C(=O)[C@H](Cc2ccc(O)cc2)NC(=O)[C@H](C)NC(=O)[C@H](CCCCN)NC(=O)[C@H]([C@@H](C)O)NC(=O)[C@H](Cc2c[nH]c3ccccc23)NC1=O)C(C)C (H-LVRGCWTKAYPPKPCFVR-OH; disulfide 5-15)
a: 245
